B1: TRIB1 (parent)
chain: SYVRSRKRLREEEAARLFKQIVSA

# Variants of: B1
# TEST_DETAILS: protein stability index of a GFP-peptide fusion (GPS, HEK-293T) (PSI 1-6); higher = more stable;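 also: lentivirally expressed fusions sorted by FACS into six bins by GFP to DsRed ratio, PSI derived from sequencing read proportions per bin multiplied by bin number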
# TEST_CONDITIONS: c terminus: a fixed tail appended
Task for the reader: assign each of the following variants its reported protein stability index.
Answers are plain numbers.

As a guide, the following entries are already answered.
SYVRSRKRLREEEAARMFKQIVSA [L17M]    2.03
SYVWSRKRLREEEAARLFKQIVSA [R4W]    1.29
SYVRSRKELREEEAARLFKQIVSA [R8E]    3.2
SYVRSRKRLLEEEAARLFKQIVSA [R10L]    2.23
SYVRSRKRLREEEAHRLFKQIVSA [A15H]    2.08
SYVRSRKRLRPEEAARLFKQIVSA [E11P]    1.85
SYVRSRKRQREEEAARLFKQIVSA [L9Q]    2.3
SYVRSRKRLREEELARLFKQIVSA [A14L]    2.03
SYVRSRKRLREERAARLFKQIVSA [E13R]    2.85
SYVRSRKRLREEEAARLVKQIVSA [F18V]    2.86

Would you be so kind as to report protein stability index for each listed record?
1. SYVRSRKRLREEEAARLHKQIVSA [F18H]
2. SYVRSRKRLREEEARRLFKQIVSA [A15R]
3. SYVRSRPRLREEEAARLFKQIVSA [K7P]
4. SYVRSRKRLREEEAARLDKQIVSA [F18D]
5. SYVRSRKRLRGEEAARLFKQIVSA [E11G]
6. SYVRSRKRLREEEAARLFKQIPSA [V22P]

1. 4.19
2. 2.62
3. 2.03
4. 3.83
5. 1.33
6. 3.72

Would you be so kind as to report protein stability index for each listed record?
1. SYVRSRKRLREEEAARLFKMIVSA [Q20M]
2. SYVRSRKRLREEEAASLFKQIVSA [R16S]

2.17
1.72

The measurements presented in this section are drawn from the supplement of paper PMC10567573.
